The reported numbers originate from PubChem BioAssay (NCATS).

- Experimental protocol: qHTS of pediatric cancer cell lines to identify multiple opportunities for drug repurposing: Primary screen for A673 cells (AID 1347092); note: nearly all actives have a fitted effect of over 45% in size
- Recorded conditions: A673 Ewing sarcoma viability, CellTiter-Glo ATP luminescence, 48 h; series mostly up to 46 µM
Results filed as inconclusive are left out. Calls of active or inactive are those of the source. Calls come from the whole dose curve; as a rule, active = well fitted cell-killing curve with a large enough effect; inconclusive = small, poorly fitted or top-dose-only effect; inactive = no such curve, though single readings can be large or run the other way.
Your reply should match one of these outcome classes. yes (1) for active, no (0) for inactive

For orientation, consider the following solved cases.
* Cc1cn2c(-c3cn[nH]c3)cnc2c(Nc2ccc(C(=O)N3CCNCC3)cc2F)n1 | yes (1)
* COc1ccc(-c2cc3c(C)nc(N)nc3n(C3CCC(OCCO)CC3)c2=O)cn1 (stereo not drawn) | yes (1)
* CC1(C)OC2=C(C(=O)c3ccccc3C2=O)[C@H](NCc2ccccc2)[C@H]1O | yes (1)

Ask | Kindly provide the recorded test outcome for the following compound: Fc1cc(-c2cccc3ncc(-c4cnn(C5CCNCC5)c4)nc23)cc(F)c1CN1CCOCC1
Reply | yes (1)

Ask | Kindly provide the recorded test outcome for the following compound: CN(C)CC(C)(C)CNc1nn2c(-c3ccccc3)nnc2cc1C1CCC1
Reply | yes (1)

Ask | Kindly provide the recorded test outcome for the following compound: CC[C@H]1CN2CCc3cc(OC)c(OC)cc3[C@H]2C[C@@H]1C[C@@H]1NCCc2cc(OC)c(OC)cc21
Reply | yes (1)

Ask | Kindly provide the recorded test outcome for the following compound: CCOc1ccccc1OCCNC(C)Cc1ccc(OC)c(S(N)(=O)=O)c1 (stereo not drawn)
Reply | no (0)

Ask | Kindly provide the recorded test outcome for the following compound: COc1ccc(C(=O)CC2(O)C(=O)Nc3c(Cl)ccc(Cl)c32)cc1 (stereo not drawn)
Reply | yes (1)

Ask | Kindly provide the recorded test outcome for the following compound: COc1cc2c(NC3CCN(C(C)C)CC3)nc(C3CCCCC3)nc2cc1OCCCN1CCCC1
Reply | yes (1)

Ask | Kindly provide the recorded test outcome for the following compound: c1nc2nc(Nc3ccc(N4CCOCC4)cc3)nc(NC3CCCCC3)c2[nH]1
Reply | yes (1)

====

- Experimental protocol: Quantitative High-Throughput drug screen in 47 multiple myeloma cell lines against the NCATS MIPE library collection: OPM1_PLB cell viability assay (AID 1918989); note: nearly all actives have a fitted effect of over 40% in size
- Recorded conditions: CellTiter-Glo, 48 h; series mostly up to 45.8 µM
Records with an inconclusive call do not appear. Activity calls are given as the source filed them. The call rests on the fitted dose curve; in most records, active means well fitted cell-killing curve with a large enough effect; inconclusive means small, poorly fitted or top-dose-only effect, or effect the other way; inactive means no such curve, though single readings can be large or run the other way.
Your reply should match one of these outcome classes. active, inactive

- Cn1c(CNc2ccc(C(=N)N)cc2)nc2cc(C(=O)N(CCC(=O)O)c3ccccn3)ccc21: inactive
- CN1CCN(c2ccc3nc(-c4c(N)c5c(F)cccc5[nH]c4=O)[nH]c3c2)CC1: active
- O=C(O)[C@H](Cc1c[nH]c2ccccc12)N1C(=O)c2ccccc2C1=O: inactive
- COc1cc(C(=O)NS(=O)(=O)c2ccccc2C)ccc1Cc1cn(C)c2ccc(NC(=O)OC3CCCC3)cc12: active
- CNC(=O)c1ccc(-c2cnc3ncc(Cc4ccc5ncccc5c4)n3n2)cc1F: inactive
- Nc1ccc(S(=O)(=O)Nc2ncccn2)cc1: inactive
- COc1cc(Nc2ncc(F)c(Nc3ccc4c(n3)N(COP(=O)(O)O)C(=O)C(C)(C)O4)n2)cc(OC)c1OC: active
- C[C@@H]1CN(CC(=O)Nc2ccc3c(c2)Cc2cccc(-c4cc(=O)cc(N5CCOCC5)o4)c2S3)C[C@H](C)O1: active

// switching to the query molecule
Ask | Kindly provide the recorded test outcome for the following molecule: COc1cccc2nc(-c3cccs3)nc(NN3C(=O)C=C(C)C3=O)c12
Reply | active
